Where do these numbers come from? They come from patent US8952150B2.

Target: rat PGT (Rattus norvegicus (Rat))
Experiment: [3H]PGE2 uptake inhibition in MDCK cells stably transfected with rat PGT (percent inhibition and IC50)
Format: cell-based
Conditions: 0.1 μM compound; inhibition of [3H]PGE2 uptake
The following molecules are listed with their measured Inh (% of Ctl) 0.1 μM values.

Solved entries (count: 3):
What value of Inh (% of Ctl) 0.1 μM has been recorded for this entry: O=C(NCCOCCOCCNc1nc(Nc2ccc(O)cc2)nc(Nc2ccc(C(=O)NCc3ccc(F)c(F)c3)cc2)n1)c1ccccc1 [compound 129]
8.9 % of Ctl

Would you mind doing O=C(NCCOCCNc1nc(Nc2ccc(O)cc2)nc(Nc2ccc(C(=O)NCc3ccccc3)cc2)n1)Nc1ccccc1 [compound 139] as well?
16.3 % of Ctl

What about this molecule? CN(c1ccc(C(=O)NCc2ccccc2)cc1)c1nc(NCCOCCOCCNC(=O)c2ccccc2)nc(Nc2ccc(O)cc2)n1 [compound 124]
68.8 % of Ctl

Further cases:
Param item = O=C(NCCOCCOCCNc1nc(Nc2ccc(O)cc2)nc(Nc2ccc(C(=O)NCc3cccc(F)c3)cc2)n1)c1ccccc1 [compound 105] ; retrieve measured Inh (% of Ctl) 0.1 μM.
67.9 % of Ctl

====

Target: rat PGT (Rattus norvegicus (Rat), UniProt Q00910)
Assay: [3H]PGE2 uptake inhibition in MDCK cells stably transfected with rat PGT (percent inhibition and IC50)
Assay type: cell-based
Conditions: 0.5 μM compound; inhibition of [3H]PGE2 uptake
Method: MDCK cells stably transfected with rat PGT (Endo et al., 2002) were seeded at 15-20% confluence on 24-well plates. The day on which the cells were seeded was considered day 1. PGE2 uptake experiments were conducted on day 4. All of the PGE2 uptake experiments were conducted at room temperature. […] 1.5 mL of scintillation solution was added to each well, and intracellular [^3H]PGE2 was counted by MicroBeta Counter. […] IC50 was calculated by fitting an equation of y=m1−m1*(m0/(m2+m0)).
testReadout: Inh (% of Ctl) 0.5 μM

Examples from the recorded data:
Can you share its Inh (% of Ctl) 0.5 μM? I mean this compound: O=C(O)c1ccc(Nc2nc(NCCOCCOCCNC(=O)c3ccccc3)nc(Nc3ccc(O)cc3)n2)cc1
19.2 % of Ctl

Follow-up item: O=C(NCCOCCOCCNc1nc(Nc2ccc(O)cc2)nc(Nc2ccc(C(=O)OCc3ccccc3)cc2)n1)c1ccccc1
24.9 % of Ctl

Try the compound O=C(NCCOCCOCCNc1nc(Nc2ccc(O)cc2)nc(Nc2ccc(O)cc2)n1)c1ccccc1
2.4 % of Ctl

Another: O=C(NCCOCCOCCNc1nc(Nc2ccc(O)cc2)nc(Nc2ccc(C(=O)NCc3cc(F)cc(F)c3)cc2)n1)c1ccccc1
73.2 % of Ctl

Entry to check: O=C(NCCOCCNc1nc(Nc2ccc(O)cc2)nc(Nc2ccc(C(=O)NCc3ccccc3)cc2)n1)c1ccncc1
28.4 % of Ctl

Let us now turn to CN(Cc1ccccc1)C(=O)c1ccc(Nc2nc(NCCOCCOCCNC(=O)c3ccccc3)nc(Nc3ccc(O)cc3)n2)cc1
15.0 % of Ctl

Next:
Looking for the measured Inh (% of Ctl) 0.5 μM of O=C(NCCOCCOCCNc1nc(NCCO)nc(Nc2ccc(OCc3ccccc3)cc2)n1)c1ccccc1 , can you help?
3.6 % of Ctl

Repeat with COC(=O)c1ccc(Nc2nc(NCCOCCOCCNC(=O)c3ccccc3)nc(Nc3ccc(O)cc3)n2)cc1
22.0 % of Ctl

Quick one: COc1ccc(Nc2nc(NCCOCCOCCNC(=O)c3ccccc3)nc(Nc3ccc(O)cc3)n2)cc1
14.4 % of Ctl

And the next one, N[C@@H](C(=O)NCCOCCNc1nc(Nc2ccc(O)cc2)nc(Nc2ccc(C(=O)NCc3ccccc3)cc2)n1)c1ccccc1 ?
22.1 % of Ctl
